The values you see were collected from the supplement of paper PMC4862054.

Tested on: Hs578T
protocol-summary: normalised viability (% of control), CellTiter-Blue; higher = more viable cells (about 100 = DMSO control)
conditions: 1000 nM; incubation time: 72 h
normalised viability strictly less than 80% = TRUE. Otherwise FALSE.

Answered examples (3):
INSERT INTO measurements (molecule, group_label) VALUES
  ('Cc1ccc(-n2nc(C(C)(C)C)cc2NC(=O)Nc2ccc(OCCN3CCOCC3)c3ccccc23)cc1 [Doramapimod]', 'FALSE'),
  ('O=P1(NCCCl)OCCCN1CCCl (stereo not given) [Ifosfamide]', 'FALSE'),
  ('NC(=O)Nc1cc(-c2cccc(F)c2)sc1C(=O)N[C@H]1CCCNC1 [AZD 7762]', 'TRUE');

Next, consider the following molecule.
is_below(normalised viability, 80%) for COc1cc([C@@H]2c3cc4c(cc3[C@@H](O[C@@H]3O[C@@H]5CO[C@@H](C)O[C@H]5[C@H](O)[C@H]3O)[C@H]3COC(=O)[C@H]23)OCO4)cc(OC)c1O [Etoposide] ?
TRUE
